Hey, just so you know, these numbers are from ChEMBL document CHEMBL1133084.

species on record: Rattus norvegicus; experiment: Inhibitory effect on the oxidative degradation of membrane lipids (lipid peroxidation assay) in microsomes of rat.; type: functional
MEASURED PROPERTY: IC50 (nM)

Study these solved cases before continuing.
>>> endpoint_result("C[N+](C)(C)CCCOc1ccc2c(=O)cc(-c3ccc(O)c(O)c3)oc2c1")
37300
>>> endpoint_result("C[N+](C)(C)CCCCCCCCOc1c(-c2ccc(O)c(O)c2)oc2ccccc2c1=O")
1000
>>> endpoint_result("COc1ccc2c(=O)cc(-c3ccc(O)c(O)c3)oc2c1")
2500

[A] O=c1c(OCCO)c(-c2ccc(O)c(O)c2)oc2cc(O)ccc12
[B] CN(C)CCCOc1c(-c2ccc(O)c(O)c2)oc2ccccc2c1=O
Query :: Could you determine which record has the numerically smaller IC50? Candidates: A and B Bench note: the answer is the label of the chosen record.
Result :: B

[I] C[N+](C)(C)CCCOc1c(-c2ccc(O)c(O)c2)oc2cc(O)ccc2c1=O
[II] C[N+](C)(C)CCCCCCOc1c(-c2ccc(O)c(O)c2)oc2ccccc2c1=O
Query :: Between the two listed entries I and II , which has its IC50 at the higher number? Answer = label.
Result :: I

[P] CN(C)CCCOc1ccc2c(=O)cc(-c3ccc(O)c(O)c3)oc2c1
[Q] COc1c(-c2ccc(O)c(O)c2)oc2cc(O)ccc2c1=O
Query :: Looking at P and Q , which one comes out lower in IC50 terms? Give the label under which the chosen entry appears.
Result :: Q
(Q: 1600 nM, P: 8100 nM)

[A] O=c1c(O)c(-c2ccc(O)c(O)c2)oc2cc(O)ccc12
[B] COc1c(-c2ccc(O)c(O)c2)oc2ccccc2c1=O
Query :: Higher IC50 between A and B ? Mark your answer with the label of the selected entry.
Result :: B
(B: 1300 nM, A: 200 nM)

###

species: Rattus norvegicus; assay: Inhibitory effect on the oxidative degradation of membrane lipids (lipid peroxidation assay) in microsomes of rat.; assay type: functional
MEASURED PROPERTY: IC50 (µM)

Reference set, count: 2
>>> endpoint_result("O=c1c(O)c(-c2ccc(O)c(O)c2)oc2cc(OCCO)ccc12")
13.8
>>> endpoint_result("O=C(O)COc1c(-c2ccc(O)c(O)c2)oc2ccccc2c1=O")
6.5

[1] O=c1c(OCCO)c(-c2ccc(O)c(O)c2)oc2ccccc12
[2] O=c1cc(-c2ccc(O)c(O)c2)oc2cc(OCCO)ccc12
[3] O=c1cc(-c2ccc(O)c(O)c2)oc2cc(O)ccc12
[4] C[N+](C)(C)CCCOc1c(-c2ccc(O)c(O)c2)oc2ccccc2c1=O
[5] O=c1c(O)c(-c2ccc(O)c(O)c2)oc2ccccc12
Query :: Put the items in sequence by IC50, from largest down. Field: ranking. Enter the labels in the order requested.
Result :: 2, 3, 5, 4, 1
(2: 16.4 µM, 3: 11 µM, 5: 1.8 µM, 4: 1.2 µM, 1: 0.6 µM)

###

assay: Antioxidant activity was determined using trolox equivalent antioxidant capacity assay.; assay type: functional
This section presents molecules with their documented Activity values.
# unit: mM | format: bare number

Solved cases below.
>>> endpoint_result("CN(C)CCCOc1c(-c2ccc(O)c(O)c2)oc2ccccc2c1=O")
3.4
>>> endpoint_result("C[N+](C)(C)CCCCCCCCOc1c(-c2ccc(O)c(O)c2)oc2ccccc2c1=O")
3.3
>>> endpoint_result("COc1c(-c2ccc(O)c(O)c2)oc2ccccc2c1=O")
4.4
>>> endpoint_result("COc1ccc2c(=O)cc(-c3ccc(O)c(O)c3)oc2c1")
3.3
>>> endpoint_result("O=c1c(O)c(-c2ccc(O)c(O)c2)oc2ccccc12")
4.5

Could you now consider this next molecule?
Value of measured Activity for the entry `CN(C)CCCOc1ccc2c(=O)cc(-c3ccc(O)c(O)c3)oc2c1` : 2.9

###

assay: Antioxidant activity was determined using trolox equivalent antioxidant capacity assay.; type: functional
MEASURED PROPERTY: Activity (mM)
Value expressed in mM; do not type the unit.

>>> endpoint_result("O=c1cc(-c2ccc(O)c(O)c2)oc2cc(OCCO)ccc12")
4.3
>>> endpoint_result("O=c1c(OCCO)c(-c2ccc(O)c(O)c2)oc2ccccc12")
4.4
>>> endpoint_result("O=c1c(O)c(-c2ccc(O)c(O)c2)oc2cc(OCCO)ccc12")
4.9
>>> endpoint_result("O=C(O)COc1c(-c2ccc(O)c(O)c2)oc2ccccc2c1=O")
7.6
>>> endpoint_result("COc1c(-c2ccc(O)c(O)c2)oc2cc(O)ccc2c1=O")
5.9

Switching to the query record.
Record `O=c1cc(-c2ccc(O)c(O)c2)oc2cc(O)ccc12` , field Activity: 4.3

###

Listed compounds paired with reported Activity
test: Antioxidant activity was determined using trolox equivalent antioxidant capacity assay.; type: functional
Note: unit mM is implicit; provide only the numeric part.

>>> endpoint_result("O=c1c(O)c(-c2ccc(O)c(O)c2)oc2cc(O)ccc12")
5.6
>>> endpoint_result("C[N+](C)(C)CCCOc1c(-c2ccc(O)c(O)c2)oc2ccccc2c1=O")
4.2
>>> endpoint_result("C[N+](C)(C)CCCCCCOc1c(-c2ccc(O)c(O)c2)oc2ccccc2c1=O")
4.3

Form: compound = `O=c1c(OCCO)c(-c2ccc(O)c(O)c2)oc2cc(O)ccc12` ; Activity = 3.4

Item: `C[N+](C)(C)CCCOc1c(-c2ccc(O)c(O)c2)oc2cc(O)ccc2c1=O` | Activity: 5.1

`C[N+](C)(C)CCCOc1ccc2c(=O)cc(-c3ccc(O)c(O)c3)oc2c1` has a reported Activity of 1.9
